Tested on: MCF-7 cells
Assay: MTT cell viability assay, MCF-7
Type: cell-based
Details: Homo sapiens, MCF7, 100 µM, 24 h, read-out: %Inhibition at 100 µM, MCF-7 cell line
So basically, the class depends on measured inhibition at 100 µM, and the ranges are group A: < 10%; group B: ≥ 10% and < 20%; group C: ≥ 20%

Worked examples follow.
# compound, cat
data = [
    ("N#CC1=C(N)Nc2n[nH]cc2C12C(=O)Nc1ccc(OC(F)(F)F)cc12 (stereo not shown)", "group B"),
    ("Cc1ccc2nc(N)c3c(N)nc4n[nH]c(C)c4c3c2c1", "group C"),
    ("Cc1[nH]nc2nc(N)c3c(N)nc4ccc(OC(F)(F)F)cc4c3c12", "group B"),
    ("N#CC1=C(N)Nc2n[nH]cc2C12C(=O)Nc1ccc([N+](=O)[O-])cc12 (stereo not shown)", "group A"),
    ("Cc1[nH]nc2c1C1(C(=O)Nc3ccc([N+](=O)[O-])cc31)C(C#N)=C(N)N2 (stereo not shown)", "group C"),
    ("Cc1[nH]nc2c1C1(C(=O)Nc3ccc(F)cc31)C(C#N)=C(N)N2 (stereo not shown)", "group A"),
    ("N#CC1=C(N)Nc2n[nH]cc2C12C(=O)Nc1ccccc12 (stereo not shown)", "group C"),
    ("Nc1nc2ccc([N+](=O)[O-])cc2c2c1c(N)nc1n[nH]cc12", "group A"),
]

Which of the defined bands does the recorded inhibition at 100 µM of Nc1nc2ccc(OC(F)(F)F)cc2c2c1c(N)nc1n[nH]cc12 sit within?
group C

Categorize the following entry: Cc1ccc2c(c1)C1(C(=O)N2)C(C#N)=C(N)Nc2n[nH]c(C)c21 (stereo not shown)
group A

* * *

System: MCF-7 cells
Assay: MTT cell viability assay, MCF-7
Type: cell-based
Details: Homo sapiens, MCF7, 100 µM, 24 h, read-out: %Inhibition at 100 µM, MCF-7 cell line
Collected inhibition at 100 µM values appear next to each entry.
# output: bare number, implied unit %

Known results for molecules:
# molecule, inhibition at 100 µM [%]
records = [
    ("N#CC1=C(N)Nc2n[nH]cc2C12C(=O)Nc1ccc(Cl)cc12 (centres unmarked) [4d]", 18.9),
    ("Nc1nc2ccccc2c2c1c(N)nc1n[nH]cc12 [5a]", 46.4),
    ("Cc1[nH]nc2c1C1(C(=O)Nc3ccc(OC(F)(F)F)cc31)C(C#N)=C(N)N2 (centres unmarked) [4n]", 0.15),
    ("Cc1ccc2nc(N)c3c(N)nc4n[nH]cc4c3c2c1 [5b]", 96.4),
]

Given the entry N#CC1=C(N)Nc2n[nH]cc2C12C(=O)Nc1ccc(F)cc12 (centres unmarked) [4c] , report its measured inhibition at 100 µM.
26.8

// query inhibition at 100 µM value for entry Nc1nc2ccc(Cl)cc2c2c1c(N)nc1n[nH]cc12 [5d]
27.3

inhibition at 100 µM lookup needed for Cc1ccc2c(c1)C1(C(=O)N2)C(C#N)=C(N)Nc2n[nH]cc21 (centres unmarked) [4b] , thanks.
1.86

I am curious: what inhibition at 100 µM value has been reported for Cc1[nH]nc2nc(N)c3c(N)nc4ccc(Cl)cc4c3c12 [5k] ?
69.5

Where do these numbers come from? They come from paper PMC10067956.
